System: Gastric Acid Output
Assay Explanation: Gastric antisecretory activity in the Gastric Fistula Rat (Table 2 title: Two-Hour Pylorus Ligated Rat)
Type: in vivo, Long Evans rats
Test Conditions: Rattus norvegicus, ip; Route of Administration i.p.; numbers in parentheses are the 95% confidence limits; read-out: ED50
Experimental Endpoint: ED50

**Query** Notebook: pull reported ED50 for Gastric Acid Output, entry C#CCNC1=NS(=O)(=O)N=C1NCCSCc1csc(N=C(N)N)n1 [Example 32]
**Result** 0.08 µmol/kg

**Query** Next record, please: CCNC1=NS(=O)(=O)N=C1NCCSCc1ccc(CN(C)C)o1 [Example 12]
**Result** 0.28 µmol/kg

**Query** Queued: Cc1[nH]cnc1CSCCNC1=NS(=O)(=O)N=C1O [Example 7]
**Result** 31.1 µmol/kg

**Query** Try C#CCNC1=NS(=O)(=O)N=C1NCCSCc1nc[nH]c1C [Example 1] next.
**Result** 12.5 µmol/kg

**Query** Further, for Cc1[nH]cnc1CSCCNC1=NS(=O)(=O)N=C1NCCSCc1csc(N=C(N)N)n1 [Example 3] ?
**Result** 0.46 µmol/kg

**Query** Next entry: CNC1=NS(=O)(=O)N=C1NCCSCc1csc(NC(=N)N)n1 [Example 31]
**Result** 0.41 µmol/kg
